# Tested on: C. albicans CaCi-17 growth, Alamar Blue fluorescence, 48 h
# assay.procedure: antifungal potency against resistant Candida albicans – CaCi-17 isolate, Alamar Blue, cherry-pick retest, confirmation (AID 588530)
Activity calls are given as the source filed them.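 The calls were made as follows: active = Alamar Blue signal falls with dose, AC50 no more than twice the top valid dose; inconclusive = flat curve near half-strength inhibition, or poor fit; inactive = the rest.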
Your answer must be one of the following: class 1 for active, class 0 for inactive

Some solved cases for reference:
> print(dat)
                                   molecule                       experimental.target    class
1     C/C(=N\NC(=O)c1cc2ccccc2cc1O)c1ccccn1  C. albicans CaCi-17 growth, Alamar Blue fluorescence, 48 h  class 1
2  Oc1c(CN2CCN(c3ccccc3)CC2)cc(Br)c2cccnc12  C. albicans CaCi-17 growth, Alamar Blue fluorescence, 48 h  class 0
3  COc1cccc(/C=N/Nc2ncnc3scc(-c4ccccc4)c23)c1O  C. albicans CaCi-17 growth, Alamar Blue fluorescence, 48 h  class 1
4  CCN1/C(=C/C=C/c2oc3ccc(-c4ccccc4)cc3[n+]2CC)Oc2ccc(-c3ccccc3)cc21  C. albicans CaCi-17 growth, Alamar Blue fluorescence, 48 h  class 1

We next turn to a different molecule, shown below.
## Task Given CCCCC(=O)NC(c1ccc(N(CC)CC)cc1)c1ccc2cccnc2c1O (stereo not given) , state the outcome it received in this test.
## Result class 1
